Heads up, these compounds all have pIC50 values measured for DGKα (Homo sapiens (Human)).
pIC50: −log10 of the molar value.

QUERY: # query: pIC50 of entry Cc1nc2c(N3C[C@@H](C)N(C(c4ccc(F)c(Cl)c4)C4CC(F)(F)C4)C[C@@H]3C)nc3nncn3c2n1C[C@@H]1CCCO1 (single isomer, unassigned)
RESULT: ≥ 7.70

QUERY: Again, but for CC(C)CC(c1ccc(Cl)cc1)N1C[C@H](C)N(c2nc3nncn3c3c2ncn3C[C@@H]2CCCO2)C[C@H]1C (single isomer, unassigned)
RESULT: ≥ 7.70

QUERY: And for Cc1nc2c(N3C[C@@H](C)N(C(c4ccc(Cl)cc4)[C@@H]4CC4(F)F)C[C@@H]3C)nc3nncn3c2n1C[C@@H]1CCCO1 (single isomer, unassigned) ?
RESULT: ≥ 7.70

QUERY: Next entry: Cc1nc2c(N3C[C@@H](C)N(C(c4ccc(Cl)c(F)c4)C4CC(F)(F)C4)C[C@@H]3C)nc3nncn3c2n1C[C@@H]1CCCO1 (single isomer, unassigned)
RESULT: ≥ 7.70

QUERY: Now the compound C[C@@H]1CN(c2nc3nncn3c3c2ncn3C[C@@H]2CCCO2)[C@@H](C)CN1C(c1ccc(Cl)cc1)[C@@H]1CC1(F)F (single isomer, unassigned)
RESULT: ≥ 7.70

QUERY: Another compound to check: C[C@@H]1CN(c2cc3nncn3c3c2ncn3C[C@@H]2CCCO2)[C@@H](C)CN1C(c1ccc(Cl)cc1)[C@@H]1CC1(F)F (single isomer, unassigned)
RESULT: ≥ 7.70
